The measurements presented in this section are drawn from PubChem BioAssay (NCI).

Test: NCI Yeast Anticancer Drug Screen. Data for the mlh1 rad18 strain (AID 175)
Settings: S. cerevisiae mlh1 rad18 strain growth inhibition; at 5.0 µM (retest, dose inferred, filed as 0.5); hits give high values
This is part of a sample that, as a whole, favours compounds with a hit. Of some 79,000 tested, about 15% had one in any assay.
Label class 1 when growth inhibition >= 50%; otherwise class 0.

[
  {
    "molecule": "OC(c1cc2ccc(C(F)(F)F)cc2c2cc(C(F)(F)F)ccc12)C1CCCCN1 (configuration not stated)",
    "classification": "class 1"
  },
  {
    "molecule": "Cc1ccccc1NC(=O)Cc1csc2[n+]1C(=O)/C(=C/c1ccc([N+](=O)[O-])cc1)S2",
    "classification": "class 0"
  },
  {
    "molecule": "Oc1ccccc1N=Cc1ccccc1",
    "classification": "class 0"
  },
  {
    "molecule": "Cc1cccc(N=NC(C#N)C#N)c1",
    "classification": "class 0"
  },
  {
    "molecule": "CCCCCCN(CCCCCC)CCCCCCCCCCCO",
    "classification": "class 0"
  },
  {
    "molecule": "Oc1ccc2c(c1)CCc1ccccc1-2",
    "classification": "class 1"
  },
  {
    "molecule": "O=C1C=CC(=O)N1c1cccc2c1CCCC2",
    "classification": "class 1"
  },
  {
    "molecule": "CC1=CC(=O)C=CC1(C)C(Cl)(Cl)Cl (configuration not stated)",
    "classification": "class 0"
  },
  {
    "molecule": "CCCCCC[C@@H](O)C/C=C\\CCCCCCCC(=O)OCCOC",
    "classification": "class 0"
  },
  {
    "molecule": "CN(C)c1cc(N)c(Cc2c(N)cc(N(C)C)cc2Cl)c(Cl)c1",
    "classification": "class 0"
  },
  {
    "molecule": "O=C(Cc1ccccc1)C(F)(F)F",
    "classification": "class 0"
  }
]

---

Assay: NCI Yeast Anticancer Drug Screen. Data for the sgs1 mgt1 strain (AID 161);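 also: 0% = growth of cultures given vehicle only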
Conditions: S. cerevisiae sgs1 mgt1 strain, at 5.0 µM (retest, dose inferred, filed as 0.5), hits give high values
About 79,000 compounds went through this panel and 15% of them were active in at least one assay; those are over-represented in the sample as a whole.
Response key: 1.0 means growth inhibition >= 50%; 0.0 means growth inhibition < 50%.

[
  {
    "molecule": "CCOC(=O)C1=NN(c2ccccc2)C(=O)/C1=C\\N1C(=O)/C(=C/c2cccc(O)c2)SC1=S",
    "classification": 0.0
  },
  {
    "molecule": "CCOc1ccc(Nc2nc3c(s2)C(=O)c2ccccc2C3=O)cc1",
    "classification": 1.0
  },
  {
    "molecule": "C=C(CO)C(=O)OC1CC(=C)C2CC(O)C(C)C2C2OC(=O)C(=C)C12 (stereo not given)",
    "classification": 0.0
  },
  {
    "molecule": "CC(C)=C1C=C2CC[C@@H]3[C@](C)(CCC[C@@]3(C)C(=O)O)[C@H]2CC1",
    "classification": 0.0
  },
  {
    "molecule": "O=C1C(=O)c2cccnc2-c2ncccc21",
    "classification": 1.0
  },
  {
    "molecule": "C(=N\\Nc1ccc2ccccc2n1)/c1ccccn1",
    "classification": 0.0
  },
  {
    "molecule": "COc1cc(/C=C/C(=O)CC(=O)/C=C/c2ccc(O)c(OC)c2)ccc1O",
    "classification": 0.0
  },
  {
    "molecule": "O=C(Cc1nc2cc(Cl)c(Cl)cc2nc1CC(=O)c1ccccc1)c1ccccc1",
    "classification": 0.0
  },
  {
    "molecule": "O=[N+]([O-])c1ccc(C2N(Cc3ccc(Cl)cc3)CCN2Cc2ccc(Cl)cc2)cc1",
    "classification": 1.0
  },
  {
    "molecule": "O=C(Nc1ccc(Cl)c(Cl)c1)Nc1ccccc1O",
    "classification": 0.0
  }
]

---

Experiment: NCI Yeast Anticancer Drug Screen. Data for the cln2 rad14 strain (AID 165);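 also: 0% = growth equal to vehicle treated cultures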
Settings: S. cerevisiae cln2 rad14 strain, at 50.0 µM (retest, dose inferred, filed as 5.0)
Compounds without any hit were thinned out: in the full panel of roughly 79,000, 15% have a hit. Calls of active or inactive are those of the source. Rule as the data show it: active = growth inhibition above about 70%; inactive = the rest.
Possible outcomes: true (1) = active, false (0) = inactive

[
  {
    "compound": "Cc1cc(O)c(O)c(C(C)(C)CC(C)(C)C)c1",
    "classification": "true (1)"
  },
  {
    "compound": "CC1(C)OCC(COC(c2ccccc2)(c2ccccc2)c2ccccc2)O1 (configuration not stated)",
    "classification": "false (0)"
  },
  {
    "compound": "N=C(N)Sc1cccc[n+]1[O-]",
    "classification": "true (1)"
  },
  {
    "compound": "CC/C(=C(/CC)c1ccc(O)cc1)c1ccc(O)cc1",
    "classification": "true (1)"
  },
  {
    "compound": "CCOc1ccc(C(CN2CCOCC2)C(C)=O)cc1OC (configuration not stated)",
    "classification": "false (0)"
  },
  {
    "compound": "O=C(/C=C/c1ccccc1)CCC1C(=O)c2ccccc2C1=O",
    "classification": "false (0)"
  },
  {
    "compound": "O=C(/C=C/c1ccccc1)c1ccccc1O",
    "classification": "false (0)"
  },
  {
    "compound": "O=C(Nc1ccc(Cl)c(Cl)c1)OCc1ccco1",
    "classification": "true (1)"
  },
  {
    "compound": "O=C(O)c1cccc2cccc(-c3c4ccc(=O)c(O)c-4oc4c(O)c(O)ccc34)c12",
    "classification": "true (1)"
  },
  {
    "compound": "CCC(C)(CC)c1ccc(O)cc1",
    "classification": "false (0)"
  },
  {
    "compound": "CCOc1cc(F)c([N+](=O)[O-])cc1[N+](=O)[O-]",
    "classification": "true (1)"
  },
  {
    "compound": "CN1CCC(CN2c3ccccc3Sc3ccccc32)C1 (configuration not stated)",
    "classification": "false (0)"
  }
]

---

Items are presented alongside their recorded growth inhibition.
Experiment: NCI Yeast Anticancer Drug Screen. Data for the bub3 strain (AID 167)
Settings: S. cerevisiae bub3 mutant strain, at 5.0 µM (retest, dose inferred, filed as 0.5), hits give high values
About 79,000 compounds went through this panel and 15% of them were active in at least one assay; those are over-represented in the sample as a whole.
property-label: growth inhibition (%)

[
  {
    "molecule": "CCCCCC[C@@H](O)C/C=C\\CCCCCCCC(=O)OCCOC",
    "unit-info": "%",
    "test-result": -5
  },
  {
    "molecule": "O=[N+]([O-])c1ccc(N2CCN(Cc3ccccc3)CC2)c2c1no[n+]2[O-]",
    "unit-info": "%",
    "test-result": 11
  },
  {
    "molecule": "CCCc1cc(=O)oc2c3c(c4c(c12)OC(C)(C)CC4)OC(C)[C@H](C)[C@@H]3O (stereo partly drawn)",
    "unit-info": "%",
    "test-result": 12
  },
  {
    "molecule": "Cc1oc2c(C)c3oc(=O)cc(C)c3cc2c1CCl",
    "unit-info": "%",
    "test-result": 41
  },
  {
    "molecule": "N=C(N)Sc1cccc[n+]1[O-]",
    "unit-info": "%",
    "test-result": 100
  },
  {
    "molecule": "CC(C)(C)CC(C)(C)c1ccc(OCCOCCSC(=N)N)cc1",
    "unit-info": "%",
    "test-result": 5
  },
  {
    "molecule": "CCCCCCCCCCCCCCCC[N+]1(C)CCCC1c1cccnc1 (stereo not drawn)",
    "unit-info": "%",
    "test-result": 96
  },
  {
    "molecule": "CC(C)(C)C(=O)CC(c1ccccc1)c1ccccc1",
    "unit-info": "%",
    "test-result": 10
  },
  {
    "molecule": "C=C1C(=O)C2=CC1CCC(=O)C1(C)CCC(OC(C)=O)C(C)(C)C1CC2O (stereo not drawn)",
    "unit-info": "%",
    "test-result": 15
  },
  {
    "molecule": "Cc1ccc(Nc2ccc(O)c3c2C(=O)c2c(O)ccc(Nc4ccc(C)cc4)c2C3=O)cc1",
    "unit-info": "%",
    "test-result": -2
  },
  {
    "molecule": "CCCCC(CCc1ccc([N+](=O)[O-])cc1)(C(C)=O)C(=O)OCC (stereo not drawn)",
    "unit-info": "%",
    "test-result": 11
  },
  {
    "molecule": "Cc1ccccc1N=NC(C#N)C#N",
    "unit-info": "%",
    "test-result": 68
  },
  {
    "molecule": "CC1C2c3ccccc3C(c3ccccc32)C1CO (stereo not drawn)",
    "unit-info": "%",
    "test-result": -4
  },
  {
    "molecule": "C=COC(=O)c1ccccc1C(=O)OCCCC",
    "unit-info": "%",
    "test-result": 4
  },
  {
    "molecule": "CC1(O)CCCCCC1",
    "unit-info": "%",
    "test-result": 3
  },
  {
    "molecule": "O=[n+]1c2ccccc2n([O-])c2cc(Cl)ccc21",
    "unit-info": "%",
    "test-result": 95
  },
  {
    "molecule": "Nc1ccc(-c2ccc(N)c(S(=O)(=O)O)c2)cc1S(=O)(=O)O",
    "unit-info": "%",
    "test-result": 6
  },
  {
    "molecule": "CCOC(=O)C1(C)CCCC1N (stereo not drawn)",
    "unit-info": "%",
    "test-result": 14
  },
  {
    "molecule": "S=C1SCN(Cc2cccs2)CN1Cc1cccs1",
    "unit-info": "%",
    "test-result": 37
  },
  {
    "molecule": "Nc1nc(-c2ccccc2)nc(N)c1N=O",
    "unit-info": "%",
    "test-result": 82
  },
  {
    "molecule": "CC1=CC[C@@H]2[C@@H](CC[C@@]2(C)O)C(C)(C)[C@H]1CC[C@@H]1[C@@]2(C)CC[C@@H](O)C(C)(C)O[C@@H]2CC[C@]1(C)O",
    "unit-info": "%",
    "test-result": 17
  },
  {
    "molecule": "CN(C)c1cc(N)c(Cc2c(N)cc(N(C)C)cc2Cl)c(Cl)c1",
    "unit-info": "%",
    "test-result": 6
  },
  {
    "molecule": "CC1OC(OC2C(OC3CCC4(C)C(CCC5(C)C4CC=C4C6CC(C)(C)CCC6(C(=O)O)CCC45C)C3(C)CO)OCC(O)C2O)C(O)C(O)C1O (stereo not drawn)",
    "unit-info": "%",
    "test-result": 97
  }
]
